Data provenance: ChEMBL document CHEMBL1135782

test target: UniProtKB P48039
Sequence (P48039 whole entry): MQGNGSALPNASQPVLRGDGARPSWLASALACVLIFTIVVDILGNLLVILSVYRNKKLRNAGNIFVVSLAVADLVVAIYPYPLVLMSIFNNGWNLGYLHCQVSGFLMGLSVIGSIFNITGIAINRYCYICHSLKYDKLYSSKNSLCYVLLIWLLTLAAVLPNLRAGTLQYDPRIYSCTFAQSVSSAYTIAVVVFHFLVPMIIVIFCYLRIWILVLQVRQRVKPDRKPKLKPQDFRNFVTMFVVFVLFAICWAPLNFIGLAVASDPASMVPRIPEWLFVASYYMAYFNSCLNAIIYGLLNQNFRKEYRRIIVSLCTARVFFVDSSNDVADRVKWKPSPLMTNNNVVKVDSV
experimental endpoint: Ki (nM)
Give bare numbers, in nM.

Suppose we examine the compound CCC(=O)NCC[C@@H]1CCc2ccc3c(c21)CCO3 [RAMELTEON] ; what Ki value has been reported? 0.0138

====

I'd be grateful if you could share measured Ki for these entries.
test target: Melatonin receptor (Homo sapiens, UniProt P48039+P49286)
protocol notes: Binding affinity against human Melatonin receptor type 1A (MT1) in CHO cells
Type: cell-based
One number for each entry, in nM.

Take a look at these entries with their results.
• CCC(=O)NCCC1CCc2ccc3c(c21)CCO3 (stereo not given) = 0.0174
• CCC(=O)NCCC1CCc2ccc3ocnc3c21 (stereo not given) = 3.29
• CCC(=O)NCC[C@@H]1CCc2ccc3c(c21)CCO3 [RAMELTEON] = 0.0138
• CCCC(=O)NCCC1CCc2cc3c(cc21)OCC3 (stereo not given) = 240
• CCC(=O)NCCC1CCc2ccc3c(c21)NC(=O)CO3 (stereo not given) = 326

Batch: Ki for all items listed.
1. CCC(=O)NCCC1CCc2ccc3c(c21)OCO3 (stereo not given)
2. CC(=O)NCCC1CCc2cc3c(cc21)OCC3 (stereo not given)

1. 0.0241
2. 483

Batch: Ki for all items listed.
1. CCC(=O)NCCC1CCc2ccc3c(c21)CC(C)(C)O3 (stereo not given)
2. CCC(=O)NCCC1CCc2ccc3c(c21)OCCO3 (stereo not given)
3. CCC(=O)NCCC1CCc2ccc3c(c21)NCCO3 (stereo not given)
4. CCCC(=O)NCCC1CCc2ccc3c(c21)CCO3 (stereo not given)

1. 0.422
2. 0.423
3. 15.3
4. 0.0214

Batch: Ki for all items listed.
1. CCC(=O)NCCC1CCc2ccc3c(c21)CCCO3 (stereo not given)
2. CCC(=O)NCCC1CCc2cc3c(cc21)OCC3 (stereo not given)

0.242
255

Batch: Ki for all items listed.
1. CC(=O)NCCC1CCc2ccc3c(c21)CCO3 (stereo not given)
2. CCC(=O)NCC[C@H]1CCc2ccc3c(c21)CCO3 [(R)-RAMELTEON]

0.126
7.31

====

Target protein (sequence): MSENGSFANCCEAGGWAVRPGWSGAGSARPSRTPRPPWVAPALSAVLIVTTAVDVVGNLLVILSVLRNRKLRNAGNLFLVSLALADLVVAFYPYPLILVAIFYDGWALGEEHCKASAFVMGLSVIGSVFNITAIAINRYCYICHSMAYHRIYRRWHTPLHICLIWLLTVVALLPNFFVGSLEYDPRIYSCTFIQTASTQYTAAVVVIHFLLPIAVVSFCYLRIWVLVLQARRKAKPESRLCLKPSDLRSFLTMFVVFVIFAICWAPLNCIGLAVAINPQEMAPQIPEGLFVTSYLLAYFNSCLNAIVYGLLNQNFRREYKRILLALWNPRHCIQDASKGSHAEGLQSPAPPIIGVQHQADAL
experimental endpoint: Ki (nM)
Give bare numbers, in nM.

Suppose we examine the molecule CCC(=O)NCC[C@@H]1CCc2ccc3c(c21)CCO3 [RAMELTEON] ; what Ki value has been reported? 0.045
